SYSTEM UNDER TEST: T1, murine TIM-3 extracellular domain protein with hFc tag (mTIM-3-hFc) (mouse, UniProt Q8VIM0 29-191)
T1 construct: also called mouse TIM-3 extracellular domain protein; not shown: human IgG Fc fragment (hFc) of the pCpC vector
T1 chain: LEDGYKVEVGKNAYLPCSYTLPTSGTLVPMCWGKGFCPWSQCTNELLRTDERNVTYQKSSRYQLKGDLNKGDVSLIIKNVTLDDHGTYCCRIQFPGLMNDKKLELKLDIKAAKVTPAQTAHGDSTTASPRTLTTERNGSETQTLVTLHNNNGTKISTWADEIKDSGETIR
PROTOCOL NOTES: ELISA, coated mouse TIM-3 ECD protein, 0.0007 nM antibody
The reader will find reported OD450 values listed item by item below.
Give the figure only, with no unit attached.

BINDER	TEST RESULT
7A4F10 fully human TIM-3 antibody (human IgG4, kappa) (antibody, V domains shown) VH: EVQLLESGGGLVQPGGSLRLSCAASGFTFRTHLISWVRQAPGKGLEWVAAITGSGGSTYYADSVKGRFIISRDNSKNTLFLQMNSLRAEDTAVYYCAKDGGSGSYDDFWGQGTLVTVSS VL: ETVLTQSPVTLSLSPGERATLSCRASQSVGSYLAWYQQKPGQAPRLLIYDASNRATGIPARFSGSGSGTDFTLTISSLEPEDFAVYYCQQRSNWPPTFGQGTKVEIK	0.22

For the next question, use this binder.
Prompt: Quick one: OD450 for 18D2H2 fully human TIM-3 antibody (human IgG4, kappa) (antibody, V domains shown) VH: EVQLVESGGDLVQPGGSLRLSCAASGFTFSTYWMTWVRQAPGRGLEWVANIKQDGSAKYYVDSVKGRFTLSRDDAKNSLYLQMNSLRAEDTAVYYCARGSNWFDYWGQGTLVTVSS VL: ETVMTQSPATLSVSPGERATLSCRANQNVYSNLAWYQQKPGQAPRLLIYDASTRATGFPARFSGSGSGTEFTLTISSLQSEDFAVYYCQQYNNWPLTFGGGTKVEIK ?
Completion: 0.21

Ref: patent US20220033501A1
